Provenance of the data: PubChem BioAssay AID248

test system: L1210 leukemia ip in BDF1 mice, survival T/C; assay: NCI In Vivo Anticancer Drug Screen. Data for tumor model L1210 Leukemia (intraperitoneal) in B6D2F1 (BDF1) mice; details: endpoint: mean survival time; dose: 100.0 mg/kg/injection; schedule: Q01DX001 (ip); vehicle: other; higher = longer survival
Inconclusive results and toxic doses are left out.
parameter_measured: T/C

// lookup T/C for Cc1c(C(C)c2[nH]c3ccccc3c2C)[nH]c2ccccc12
102 % of control

Please give the measured T/C for this molecule: CN1C(=O)C2(C)CCC1c1ccccc12 (configuration not stated)
103 % of control

May I ask what T/C has been recorded for CCOP(=S)(NCCCOC)OCC ?
94 % of control

// query T/C value for entry C=CCC1(O)C(c2ccccc2)=C(c2ccccc2)C(c2ccccc2)=C1c1ccccc1
96 % of control

State the recorded T/C for this entry: C/C(=N\O)C(O)c1ccccc1 (configuration not stated)
89 % of control

# input molecule: CCC1CC(O)c2ccccc2O1 (configuration not stated) ; wanted: its T/C
103 % of control

Reported T/C, molecule O=C(CCCC(=O)N/N=C/c1cccc(Cl)c1)N/N=C\c1cccc(Cl)c1 : ____
93 % of control
